# assayed-target: E. coli PanK (CoAA) (Escherichia coli, UniProt P0A6I3)
# Sequence (P0A6I3 1-316): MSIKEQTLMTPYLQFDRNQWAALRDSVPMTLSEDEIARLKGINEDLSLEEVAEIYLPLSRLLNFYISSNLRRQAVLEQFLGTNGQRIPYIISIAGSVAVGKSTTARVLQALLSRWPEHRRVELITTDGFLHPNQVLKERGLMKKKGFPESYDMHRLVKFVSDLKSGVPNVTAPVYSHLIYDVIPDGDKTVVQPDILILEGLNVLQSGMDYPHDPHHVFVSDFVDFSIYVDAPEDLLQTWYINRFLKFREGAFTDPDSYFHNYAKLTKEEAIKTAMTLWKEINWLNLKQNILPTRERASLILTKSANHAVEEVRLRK
# assay-method-text: Kinetic assay of pantetheine analogs as substrates of PanK
# Type: biochemical
quantity: turnover compared with the natural substrate (in words)

| compound | recorded-value |
| --- | --- |
| CN(C)c1ccc2c(CC(=O)NCCCCCCNC(=O)CCNC(=O)[C@H](O)C(C)(C)CO)cc(=O)oc2c1 [Compound 13] | near equal |
| CN(C)c1cccc2c(S(=O)(=O)NCCNC(=O)CCNC(=O)[C@H](O)C(C)(C)CO)cccc12 [Compound 14] | near equal |
| CC(=O)CCC(=O)NCCNC(=O)CCNC(=O)[C@H](O)C(C)(C)CO [Compound 4] | near equal |

Where do these numbers come from? They come from patent US8119364B2.
